Cited source: PubChem BioAssay (NCI)

Test system: DLD-1 colon
experimentNotes: NCI tumour cell line growth inhibition, 48 h
Each entry below carries its recorded TGI.
assayEndpoint: TGI (µM)

[[record]]
compound = "CCOC(=O)CCC(=O)C1c2cccc(O)c2C(=O)c2c(O)cc(C)cc21 (configuration not stated)"
assayendpoint = "TGI"
comparisonoperator = "="
numericvalue = 3.58

[[record]]
compound = "Nc1nc([O-])c2c(n1)[n+](C1OC(CO)C(O)C1O)cn2CCO (configuration not stated)"
assayendpoint = "TGI"
comparisonoperator = ">"
numericvalue = 100

[[record]]
compound = "COc1c(C)cc2c(c1O)C1C3[C@H]4SC[C@@]5(NCCC6=C5NC5C=CC=CC65)C(=O)OCC(c5c6c(c(C)c(OC(C)=O)c54)OCO6)N3[C@@H](O)C(C2)N1C (some centres not stated)"
assayendpoint = "TGI"
comparisonoperator = "="
numericvalue = 1.92

[[record]]
compound = "CCCC1=C(CC)C(C(=O)Nc2c(C)cccc2C)=NC(S)N1 (configuration not stated)"
assayendpoint = "TGI"
comparisonoperator = ">"
numericvalue = 100

[[record]]
compound = "C[Si](C)(C)OC1CC(=O)OC1n1cc(F)c(=O)[nH]c1=O (configuration not stated)"
assayendpoint = "TGI"
comparisonoperator = ">"
numericvalue = 100

[[record]]
compound = "COC(=O)[C@@]12C(=O)C=CC(=O)C1C1C(=CC2C)OC2OC3(CCCCC3)OC21 (some centres not stated)"
assayendpoint = "TGI"
comparisonoperator = "="
numericvalue = 35.7

[[record]]
compound = "COc1ccc(S(=O)(=O)c2ccccc2[N+](=O)[O-])cc1"
assayendpoint = "TGI"
comparisonoperator = ">"
numericvalue = 100

